The following compounds are shown together with reported viability at 28.5 h, 10 µM values.
experiment: in vitro; details: human, hela cells, % viability

{"compound": "O=C1N[C@@H](CC2CCCCC2)C(=O)N2CCN(C(=O)c3cccc(F)c3)C[C@H]12", "viability at 28.5 h, 10 µM [%]": 115}
{"compound": "Cc1cc(COc2cc(C(F)(F)F)ccn2)no1", "viability at 28.5 h, 10 µM [%]": 134}
{"compound": "CC(C(=O)NCCc1cn(C)c2ccc(Cl)cc12)N1CCOCC1 (centres unmarked)", "viability at 28.5 h, 10 µM [%]": 94.6}
{"compound": "O=C(Nc1cc(N2CCNCC2)c2occc2c1)c1cccc(C(F)(F)F)c1 [CBK061762C]", "viability at 28.5 h, 10 µM [%]": 86.5}
{"compound": "Cc1ccc(Cc2cnc(NC(=O)c3ccoc3C)s2)cc1C", "viability at 28.5 h, 10 µM [%]": 80.1}

###

experiment: in vitro; settings: human, hela cells, % viability
measured attribute: viability at 28.5 h, 10 µM (%)

{"compound": "CCn1cc(CN(CCN(C)C)Cc2ccc(C)o2)c(C)n1", "measured attribute": "viability at 28.5 h, 10 µM", "reading unit": "%", "assay value": 79.6}
{"compound": "Fc1ccc(OCCCN2CCC3(CC2)OCCc2c3[nH]c3ccccc23)cc1", "measured attribute": "viability at 28.5 h, 10 µM", "reading unit": "%", "assay value": 77}
{"compound": "CCCCSc1nc(N)cc(N2CCC3(CCNC(=O)CC3)CC2)n1", "measured attribute": "viability at 28.5 h, 10 µM", "reading unit": "%", "assay value": 98.2}
{"compound": "CCn1c(S)nnc1CNC(=O)c1ccc(Cl)cc1Cl", "measured attribute": "viability at 28.5 h, 10 µM", "reading unit": "%", "assay value": 94.3}
{"compound": "O=C(Cc1c(O)c2ccccc2[nH]c1=O)NCc1ccccc1Cl", "measured attribute": "viability at 28.5 h, 10 µM", "reading unit": "%", "assay value": 88}
{"compound": "Fc1ccc(CN2CCC(c3n[nH]c4ncccc34)CC2)cc1", "measured attribute": "viability at 28.5 h, 10 µM", "reading unit": "%", "assay value": 96.2}
{"compound": "CN(Cc1ccsc1)C(=O)c1cccc(S(=O)(=O)NCC2CCCO2)c1 (stereo not drawn)", "measured attribute": "viability at 28.5 h, 10 µM", "reading unit": "%", "assay value": 83.7}
{"compound": "Fc1ccc(CSc2nnnn2-c2ccc3c(c2)OCO3)cc1", "measured attribute": "viability at 28.5 h, 10 µM", "reading unit": "%", "assay value": 85.2}
{"compound": "O=C(NC1(c2cccc(F)c2)CCCC1)c1cnccn1", "measured attribute": "viability at 28.5 h, 10 µM", "reading unit": "%", "assay value": 93}
{"compound": "CCN(CC)S(=O)(=O)c1ccc2c(c1)CCCN2C(=O)c1ccc(C#N)cc1", "measured attribute": "viability at 28.5 h, 10 µM", "reading unit": "%", "assay value": 85.9}
{"compound": "CCN(Cc1ccccc1)C(=O)NCCc1c[nH]cn1", "measured attribute": "viability at 28.5 h, 10 µM", "reading unit": "%", "assay value": 92.8}
{"compound": "COc1ccc2c(C)c(CCC(=O)N(C)CC(=O)O)c(=O)oc2c1", "measured attribute": "viability at 28.5 h, 10 µM", "reading unit": "%", "assay value": 87}
{"compound": "O=C(NC(Cc1c[nH]c2ccccc12)C(=O)O)c1ccco1 (stereo not drawn)", "measured attribute": "viability at 28.5 h, 10 µM", "reading unit": "%", "assay value": 92.5}
{"compound": "Cc1noc(C)c1NC(=O)CCc1cccnc1", "measured attribute": "viability at 28.5 h, 10 µM", "reading unit": "%", "assay value": 99.6}
{"compound": "Cc1ccc(/N=N/N(CC(O)C(O)C(O)CO)c2ccc(C)c(C)c2)cc1C (stereo not drawn)", "measured attribute": "viability at 28.5 h, 10 µM", "reading unit": "%", "assay value": 90}
{"compound": "CC(=O)Nc1nc(-c2ccc(Cl)s2)cs1", "measured attribute": "viability at 28.5 h, 10 µM", "reading unit": "%", "assay value": 89.5}
{"compound": "O=C(c1ccsc1NS(=O)(=O)c1cc(Cl)sc1Cl)N1CCOCC1", "measured attribute": "viability at 28.5 h, 10 µM", "reading unit": "%", "assay value": 92.5}
{"compound": "OCCOc1ccccc1-c1cc[nH]n1", "measured attribute": "viability at 28.5 h, 10 µM", "reading unit": "%", "assay value": 104}
{"compound": "COc1cccc(Oc2nccnc2-c2cnn(C)c2)c1", "measured attribute": "viability at 28.5 h, 10 µM", "reading unit": "%", "assay value": 98}
{"compound": "COc1ccc(OC)c(NC(=O)COc2ccc(C(C)C)cc2)c1", "measured attribute": "viability at 28.5 h, 10 µM", "reading unit": "%", "assay value": 114}
{"compound": "Cc1cc(CNC(=O)CCn2ccc(C)n2)on1", "measured attribute": "viability at 28.5 h, 10 µM", "reading unit": "%", "assay value": 97.3}
